Target: L-lactate dehydrogenase (Plasmodium falciparum (isolate CDC / Honduras)) (UniProt Q27743)
Sequence (Q27743 whole entry, looked up): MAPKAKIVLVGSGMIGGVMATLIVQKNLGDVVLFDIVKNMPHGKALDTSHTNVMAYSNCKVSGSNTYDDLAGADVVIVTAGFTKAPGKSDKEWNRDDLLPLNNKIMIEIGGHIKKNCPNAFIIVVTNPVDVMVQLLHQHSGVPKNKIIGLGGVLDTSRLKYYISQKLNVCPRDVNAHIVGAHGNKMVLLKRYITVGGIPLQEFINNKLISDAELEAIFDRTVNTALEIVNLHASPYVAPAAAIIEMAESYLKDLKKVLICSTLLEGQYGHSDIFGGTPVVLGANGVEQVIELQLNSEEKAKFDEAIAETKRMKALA
Test: PfLDH activity inhibition – cell lysate, 3D7 strain, counter-screen for P. falciparum growth inhibition project (AID 2304);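 also: 0% = vehicle and 100% = reference inhibitor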
Conditions: P. falciparum 3D7 crude extract, LDH APAD/NBT absorbance; at 2 µM; stronger effect = higher value
observable: inhibition (%)

>>> quantitative_result("Cc1cc(NCCc2ccc(O)cc2)nc(NCC(c2ccccc2)c2ccccc2)n1")
1
>>> quantitative_result("CCCSc1nc2c(c(=O)n1CCc1ccccc1)C1(CCCC1)Cc1ccccc1-2")
-4
>>> quantitative_result("Cc1ccc(C)c(Cn2ccc3nc(Cl)nc(Cl)c32)c1")
-2
>>> quantitative_result("O=C(Nc1ccc(C(F)(F)F)cc1)Nc1cccc([N+](=O)[O-])c1")
4
>>> quantitative_result("COC1(C)Oc2ccc3cccc([N+](=O)[O-])c3c2C1=O (stereo not given)")
-2
>>> quantitative_result("CCCc1cc(Cc2cnc(N)nc2N)cc(OC)c1OC")
6
>>> quantitative_result("O=C(Nc1cccc(C(F)(F)F)c1)Nc1nc2ccc([N+](=O)[O-])cc2s1")
0
>>> quantitative_result("CN(C)CCCOc1ccc(CCNCc2cccc(Oc3ccc(Cl)cc3)c2)cc1")
-4
>>> quantitative_result("Cc1cc(CN2CC[C@H](NC(=O)c3ccc(Cl)c(Cl)c3)C2)ccc1OCCCN(C)C")
0
>>> quantitative_result("O=C(Nc1ccc(Br)cc1)c1cc(Br)ccc1NS(=O)(=O)c1cc(C(F)(F)F)cc(C(F)(F)F)c1")
-7
>>> quantitative_result("CCOc1cc(C)ccc1NC1CCN(CCCCNC(=O)c2ccc(NC(=O)c3ccc(Cl)cc3)cc2)CC1")
-2
>>> quantitative_result("Nc1nc(N)c2c(ccc3c2ccn3Cc2ccc(OCc3ccccc3)cc2)n1")
-2
>>> quantitative_result("COc1ccc(NC(=O)Nc2ccc(-c3ccc(-c4nc5ccccc5[nH]4)cc3)cc2)cc1")
5
>>> quantitative_result("Cn1nc(-c2ccc(CN[C@@H]3CCc4ccc(O)cc43)cc2)c2cnc(NC3CCCC3)nc21")
0
>>> quantitative_result("Clc1ccc(OCc2ccccc2)c(-c2nc(-c3nc4ncc(Br)cc4[nH]3)cs2)c1")
-2
>>> quantitative_result("O=C(CN1CCCC1)Nc1cccc(C(=O)Nc2cccc(C(F)(F)F)c2)c1")
1
>>> quantitative_result("CC(C)(C)c1ccc(CN2CCC(NC(=O)c3ccc(-c4cccc(C(F)(F)F)c4)s3)CC2)cc1")
-5
>>> quantitative_result("CC(C)(C)c1nn(-c2ccccc2)c2[nH]c(=O)c(CNCc3ccc4c(c3)OCO4)cc12")
3
>>> quantitative_result("Cc1c(F)cc(C(=O)NC2CC2)cc1-c1ccc2c(c1)c(C)nn2S(=O)(=O)c1cccs1")
-3
>>> quantitative_result("O=C(N[C@H]1CCN(Cc2ccc(OCCN3CCCC3)c(Cl)c2)C1)c1ccc(Cl)c(Cl)c1")
-1

###

Experiment: antimalarial activity against Dd2 strain (AID 2302);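 also: 0% = DMSO untreated growth and 100% = chloroquine plus artemisinin killed control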
Settings: P. falciparum Dd2 in RBCs, LDH growth readout, 72 h; at 2 µM
Activity calls are given as the source filed them.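 How the source made its calls: active means growth inhibition above 50% at the single 2 µM test dose, taken to imply half-maximal potency below 2 µM; inactive means the rest.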
Labels: 1.0 (active), 0.0 (inactive)

>>> category_label("OCCn1c(CNCCCNc2nc3ccccc3[nH]2)cc2c(Cl)cc(Cl)cc21")
0.0
>>> category_label("CC(C)N(Cc1cnc(N)c(C#N)n1)c1ccc(Cl)c(Cl)c1")
1.0
>>> category_label("COc1ccc(CNCc2ccc(F)cc2)cc1-c1ccc(S(=O)(=O)NCCN2CCCC2)c(C)c1")
1.0
>>> category_label("COc1ccc(C2N=C(N)N=C(N)N2c2ccc(Cl)cc2)cc1OC (stereo not given)")
0.0
>>> category_label("COc1ccc2nccc([C@@H](O)CN3CCC(NCc4ccc5c(c4)OCCO5)CC3)c2c1")
1.0
>>> category_label("CCOC(=O)c1cn(CC)c2cc(O[C@H]3CCN(C(=O)OC(C)(C)C)C3)ccc2c1=O")
1.0
>>> category_label("Cc1c(Cn2ncc(N3CCC(N)CC3)c(Cl)c2=O)cccc1NC(=O)Nc1ccc(-c2ccccc2)cc1")
0.0
>>> category_label("COc1ccc2nc(-c3ccc(C(=O)NCCCN4CCN(c5cc(Cl)ccc5OC)CC4)cc3)[nH]c2c1")
1.0
>>> category_label("COc1cc(C)nc2ccc(NC(=O)COCC(=O)Nc3ccc4nc(C)cc(OC)c4c3)cc12")
0.0
>>> category_label("Cc1cccc(-c2nc3cc(NC(=O)c4ccc([N+](=O)[O-])o4)ccc3o2)c1")
1.0
>>> category_label("CCOc1cc(Cl)c(C(C)NC(=O)c2cccc(OC)c2)cc1OCC (stereo not given)")
1.0
>>> category_label("COc1ccc(C(C)Nc2nc(N)c3cc(OC)c(OC)cc3n2)cc1 (stereo not given)")
0.0
>>> category_label("COc1cc(Cc2cnc(N)nc2N)cc(OCCn2ccccc2=O)c1OC")
0.0
>>> category_label("COc1cc(Cc2cnc(N)nc2N)cc(OC)c1OCCNC(=O)[C@@H](N)CCC(=O)O")
0.0
>>> category_label("O=C1NC(C(=O)Nc2ccccc2)C(c2ccccc2)S1 (stereo not given)")
1.0
>>> category_label("c1ccc(COc2ccnc(NCCCOc3cccc(CN4CCCCC4)c3)c2)cc1")
1.0
>>> category_label("CCc1ccc(-c2nc3cc(NC(=O)c4cc([N+](=O)[O-])cc([N+](=O)[O-])c4)ccc3o2)cc1")
0.0
>>> category_label("CCCN(CCC)CCCNc1ccc(C(=O)Nc2ccc(OCC)cc2)cc1[N+](=O)[O-]")
0.0
>>> category_label("COc1cc(OC)cc(-c2nn(-c3ccc([N+](=O)[O-])cc3C#N)c(=S)n2CC2CCCO2)c1 (stereo not given)")
1.0
>>> category_label("CCNc1cc(C(=O)N[C@@H](Cc2ccccc2)[C@H](O)CNCc2cc(C#N)ccc2OC)cc(N2CCCC2=O)c1")
1.0

###

Experiment: antimalarial activity against Dd2 strain (AID 2302);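 also: 0% = DMSO untreated growth and 100% = chloroquine plus artemisinin killed control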
Details: P. falciparum Dd2 in RBCs, LDH growth readout, 72 h; at 2 µM
The source made the active and inactive calls.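 Rule for the calls: active = growth inhibition above 50% at the single 2 µM test dose, taken to imply half-maximal potency below 2 µM; inactive = the rest.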
Labels: class 1 = active, class 0 = inactive

>>> category_label("COc1cccc(-c2c(C#N)c(N)nc3c2c(C)nn3-c2ccccc2)c1O")
"class 1"
>>> category_label("COc1cc(OC)cc(C(=O)Nc2ccc(Nc3nc(C)cc(N(C)C)n3)cc2)c1")
"class 1"
>>> category_label("COc1ccc2nccc(NC(=O)C3CCC(NCc4cnc(SC)c([N+](=O)[O-])c4)CC3)c2n1 (stereo not given)")
"class 0"
>>> category_label("CCCSc1nc2c(c(=O)n1CCc1ccccc1)C1(CCCC1)Cc1ccccc1-2")
"class 1"
>>> category_label("O=C(Nc1ccc(Br)cc1)N(CCN1CCOCC1)CC(O)COCc1ccc(F)cc1 (stereo not given)")
"class 0"

###

Measured growth inhibition accompanies every entry in the list below.
Assay: antimalarial activity against Dd2 strain (AID 2302);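 also: 0% = DMSO untreated growth and 100% = chloroquine plus artemisinin killed control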
Conditions: P. falciparum Dd2 in RBCs, LDH growth readout, 72 h; at 2 µM; stronger effect = higher value
Activity calls are given as the source filed them.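 The calls were made as follows: active = growth inhibition above 50% at the single 2 µM test dose, taken to imply half-maximal potency below 2 µM; inactive = the rest.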
observable: growth inhibition

>>> result("COc1c(C2CCN(CCCCNC(=O)c3ccc(-c4ccc(C(=O)C(F)(F)F)cc4)cc3)CC2)ccc2c1CCCC2")
"33% (inactive)"
>>> result("Cn1cc(C(=O)Nc2cccc(-c3cccc(-c4nc5ccccc5[nH]4)c3)c2)n(C)c1=O")
"60% (active)"
>>> result("COc1cc(C=CC(=O)N2CCC(CCN3CCC(c4c[nH]c5ccccc45)CC3)CC2)cc(OC)c1")
"23% (inactive)"
>>> result("CCOc1ccc(-c2nonc2NC(=O)c2cccs2)cc1OCC")
"100% (active)"
>>> result("CC(C)CCNC(=O)c1cnc2c(O)cccc2c1Nc1cccc(NC(=O)c2ccc(F)cc2)c1")
"43% (inactive)"
>>> result("CCOc1ccc(C2CCN(CCCCNC(=O)c3ccc(NC(=O)c4ccc(Cl)cc4)cc3)CC2)c(CC)c1")
"64% (active)"
>>> result("CN1CC[C@@H](Oc2cc(C(=O)NCc3ccc(Cl)c(Cl)c3)ccc2C(F)(F)F)C1")
"4% (inactive)"
>>> result("c1ccc(CN2CCC(NCc3ccc(-c4ccc(CNCc5cccnc5)cn4)cc3)CC2)cc1")
"13% (inactive)"
>>> result("c1cc(CNC2Cc3ccccc3C2)cc(-c2cnc(N3CCNCC3)nc2)c1")
"65% (active)"
>>> result("COc1cccc(Nc2nc(N)c3ccccc3n2)c1")
"47% (inactive)"
>>> result("CC(=NN=C(N)N)C(=O)Nc1ccc(Cl)c(Cl)c1")
"97% (active)"
>>> result("Cc1cccc2[nH]c(-c3ccc(-c4cccc(CN5CCCC5CN)c4)cc3)nc12 (stereo not given)")
"32% (inactive)"
>>> result("O=C(c1ccc(Cl)c(Cl)c1)N1CCc2c([nH]c3ccccc23)C1CN1CCCC1 (stereo not given)")
"16% (inactive)"
>>> result("O=[N+]([O-])c1ccc(NC(=NCCOc2ccccc2)Nc2ccccc2Br)c(O)c1")
"70% (active)"
>>> result("O=C(NCCN1CCOCC1)c1ccc(-c2ccc(CNCCCc3ccccc3)cc2)nc1")
"10% (inactive)"
>>> result("CN(CCCCNC(=O)c1cc2ccccc2[nH]1)C1CC2(CCN(C(=O)OC(C)(C)C)CC2)c2ccccc21 (stereo not given)")
"75% (active)"
>>> result("CN1CCN(CCCNCc2ccccc2-c2cccc(CNCc3ccc4c(c3)OCO4)c2)CC1")
"7% (inactive)"
>>> result("CN1CCC(c2nc(N)no2)C1 (stereo not given)")
"2% (inactive)"
>>> result("COc1ccc(-c2ccc(S(=O)(=O)Nc3cc4c(cc3OC(C)C)CCNCC4)cc2)cc1")
"-1% (inactive)"
>>> result("COc1ccccc1-c1csc(C(=O)NCC2CCN(Cc3ccc(C(C)C)cc3)C2)c1 (stereo not given)")
"6% (inactive)"

Source: PubChem BioAssay
